Biological target: human VPAC2 (Homo sapiens)
Construct: expressed in transfected cells
Sequence (P41587 24-438): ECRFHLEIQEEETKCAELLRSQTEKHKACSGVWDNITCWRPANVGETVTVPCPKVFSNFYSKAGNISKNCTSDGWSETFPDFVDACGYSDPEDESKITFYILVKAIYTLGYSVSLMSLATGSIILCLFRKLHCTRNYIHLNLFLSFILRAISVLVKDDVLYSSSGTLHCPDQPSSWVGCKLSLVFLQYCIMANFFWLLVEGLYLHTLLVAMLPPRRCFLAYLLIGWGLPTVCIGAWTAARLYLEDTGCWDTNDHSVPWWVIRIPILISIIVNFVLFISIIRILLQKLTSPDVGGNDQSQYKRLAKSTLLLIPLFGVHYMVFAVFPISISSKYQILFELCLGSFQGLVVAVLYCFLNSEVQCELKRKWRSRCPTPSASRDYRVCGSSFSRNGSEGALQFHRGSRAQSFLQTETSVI
Test: DiscoveRx cAMP in vitro potency, CHO-S cell line stably expressing human VPAC2 receptor
Type: cell-based
Conditions: cAMP generation; mean of two independent runs
Where no end group is shown, it is not given here.
substances and their reported EC50

Query for human VPAC2 (Homo sapiens): what EC50 does the record show for HSDAVVTDNYTRLRKQVAAKKYLQSIKNKRYGGPSSGAPPPS [Agonist P66] ? > 1000 nM

HSDAVLTDNYTRLRKQVAAKKYLQSIKNKRYGGPSSGAPPPS [Agonist P64] , same question. > 1000 nM

HSDAVFTDNYTRLRKQVAAKKYLQSIKNGRPSSGAPPPS [Agonist P92] , same question. 8.2 nM

HSDAVFTDNYTRLLAKVAAKKYLQSIKNKRYGGPSSGAPPPS [Agonist P89] , same question. 0.7 nM

H-HSDAVFTDNYTRLRKQVAARKYLQSIKNKRYGGPSSGAPPPS [Agonist P20] , same question. 2.13 nM

H-HSDAVTTDNYTRLRKQVAAKKYLQSIKNKRYGGPSSGAPPPS [Agonist P65] , same question. > 1000 nM

H-HSDAVFTDNYTRAKAKVAAKKYLQSIKNKRYGGPSSGAPPPS [Agonist P94] , same question. > 1000 nM

Ac-HSDAVFTDNYTRLRKQVAAKKYLQSIKNKRYGGPSSGAPPPS [Agonist P33] , same question. 0.86 nM

Hello, the source for this data is patent US20080026996A1, in case you need it.
